biological target: FGFR4 (h) (Homo sapiens, UniProt P22455); assay: FGFR4 (enzymatic assay), TR-FRET; type: biochemical; conditions: 5 μM ATP; read-out: FGFR4 pIC50 (converted)
Sequence (P22455 22-802): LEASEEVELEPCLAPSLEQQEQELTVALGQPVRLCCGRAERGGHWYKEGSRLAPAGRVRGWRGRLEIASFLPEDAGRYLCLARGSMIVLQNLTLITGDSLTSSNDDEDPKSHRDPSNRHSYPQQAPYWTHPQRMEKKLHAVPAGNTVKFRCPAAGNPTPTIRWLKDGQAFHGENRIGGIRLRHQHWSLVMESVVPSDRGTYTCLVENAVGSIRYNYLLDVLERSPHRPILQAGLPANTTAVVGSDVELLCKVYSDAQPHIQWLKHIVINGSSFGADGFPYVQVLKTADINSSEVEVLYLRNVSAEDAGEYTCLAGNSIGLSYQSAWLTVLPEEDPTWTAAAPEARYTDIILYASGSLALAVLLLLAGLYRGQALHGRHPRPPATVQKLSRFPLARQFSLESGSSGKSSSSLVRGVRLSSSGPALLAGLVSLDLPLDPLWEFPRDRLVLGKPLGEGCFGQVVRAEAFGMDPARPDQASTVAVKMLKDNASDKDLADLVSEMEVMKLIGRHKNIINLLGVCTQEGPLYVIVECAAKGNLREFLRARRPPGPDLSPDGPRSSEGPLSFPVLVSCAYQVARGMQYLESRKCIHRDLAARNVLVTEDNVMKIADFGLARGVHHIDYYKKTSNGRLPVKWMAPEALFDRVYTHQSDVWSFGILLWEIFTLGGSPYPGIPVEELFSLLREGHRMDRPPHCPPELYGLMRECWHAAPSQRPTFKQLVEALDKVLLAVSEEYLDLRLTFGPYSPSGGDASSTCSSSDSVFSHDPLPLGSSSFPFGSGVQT
experimental-readout: IC50 (nM)

Solved cases (4 shown):
- COc1cc(OC)cc(/C(=C\CN(C)C)c2ccc3ncc(-c4cnn(C)c4)nc3c2)c1 [Compound 10]: 107
- COc1cc(OC)cc(C(CCO)c2ccc3ncc(-c4cnn(C)c4)nc3c2)c1 (stereo not drawn) [Compound 22]: 513
- COc1cc(OC)cc(/C(=C/CNC(C)C)c2ccc3ncc(-c4cnn(C)c4)nc3c2)c1 [Compound 9]: 1480
- COc1cc(OC)cc(C(CCN(C)C)c2ccc3ncc(-c4cnn(C)c4)nc3c2)c1.Cl (stereo not drawn) [Compound 21]: 355

[a] COc1cc(OC)cc(C(CCN2CCCC2=O)c2ccc3ncc(-c4cnn(C)c4)nc3c2)c1.Cl (stereo not drawn) [Compound 7]
[b] COc1cc(OC)cc(/C(=C\CNCC(F)(F)F)c2ccc3ncc(-c4cnn(C)c4)nc3c2)c1 [Compound 14]
In: When a and b are compared, which has the higher number for IC50? Indicate your choice by writing its label.
Out: a
(a: 158 nM, b: 28.8 nM)

[A] COc1cc(OC)cc(C(CC#N)c2ccc3ncc(-c4cnn(C)c4)nc3c2)c1 (stereo not drawn) [Compound 18]
[B] COc1cc(OC)cc(/C(=C\CNC(C)C)c2ccc3ncc(-c4cnn(C)c4)nc3c2)c1 [Compound 8]
[C] COc1cc(OC)cc(C(CCNC(C)C)c2ccc3ncc(-c4cnn(C)c4)nc3c2)c1 (single isomer, unassigned) [Compound 32a]
In: Ordering criterion: IC50; begin with the maximum. Form entry: ranked labels (order as requested).
Out: C, A, B
(C: 5500 nM, A: 182 nM, B: 126 nM)

* * *

target: VEGFR2 (Homo sapiens, UniProt P35968); construct: purchased Upstate; experiment: Biological Assays B: VEGFR2 in vitro kinase inhibitory activity assay; type: biochemical; settings: 0.5 μM ATP, read-out: VEGFR2 pIC50 (converted)
Sequence (P35968 20-1356): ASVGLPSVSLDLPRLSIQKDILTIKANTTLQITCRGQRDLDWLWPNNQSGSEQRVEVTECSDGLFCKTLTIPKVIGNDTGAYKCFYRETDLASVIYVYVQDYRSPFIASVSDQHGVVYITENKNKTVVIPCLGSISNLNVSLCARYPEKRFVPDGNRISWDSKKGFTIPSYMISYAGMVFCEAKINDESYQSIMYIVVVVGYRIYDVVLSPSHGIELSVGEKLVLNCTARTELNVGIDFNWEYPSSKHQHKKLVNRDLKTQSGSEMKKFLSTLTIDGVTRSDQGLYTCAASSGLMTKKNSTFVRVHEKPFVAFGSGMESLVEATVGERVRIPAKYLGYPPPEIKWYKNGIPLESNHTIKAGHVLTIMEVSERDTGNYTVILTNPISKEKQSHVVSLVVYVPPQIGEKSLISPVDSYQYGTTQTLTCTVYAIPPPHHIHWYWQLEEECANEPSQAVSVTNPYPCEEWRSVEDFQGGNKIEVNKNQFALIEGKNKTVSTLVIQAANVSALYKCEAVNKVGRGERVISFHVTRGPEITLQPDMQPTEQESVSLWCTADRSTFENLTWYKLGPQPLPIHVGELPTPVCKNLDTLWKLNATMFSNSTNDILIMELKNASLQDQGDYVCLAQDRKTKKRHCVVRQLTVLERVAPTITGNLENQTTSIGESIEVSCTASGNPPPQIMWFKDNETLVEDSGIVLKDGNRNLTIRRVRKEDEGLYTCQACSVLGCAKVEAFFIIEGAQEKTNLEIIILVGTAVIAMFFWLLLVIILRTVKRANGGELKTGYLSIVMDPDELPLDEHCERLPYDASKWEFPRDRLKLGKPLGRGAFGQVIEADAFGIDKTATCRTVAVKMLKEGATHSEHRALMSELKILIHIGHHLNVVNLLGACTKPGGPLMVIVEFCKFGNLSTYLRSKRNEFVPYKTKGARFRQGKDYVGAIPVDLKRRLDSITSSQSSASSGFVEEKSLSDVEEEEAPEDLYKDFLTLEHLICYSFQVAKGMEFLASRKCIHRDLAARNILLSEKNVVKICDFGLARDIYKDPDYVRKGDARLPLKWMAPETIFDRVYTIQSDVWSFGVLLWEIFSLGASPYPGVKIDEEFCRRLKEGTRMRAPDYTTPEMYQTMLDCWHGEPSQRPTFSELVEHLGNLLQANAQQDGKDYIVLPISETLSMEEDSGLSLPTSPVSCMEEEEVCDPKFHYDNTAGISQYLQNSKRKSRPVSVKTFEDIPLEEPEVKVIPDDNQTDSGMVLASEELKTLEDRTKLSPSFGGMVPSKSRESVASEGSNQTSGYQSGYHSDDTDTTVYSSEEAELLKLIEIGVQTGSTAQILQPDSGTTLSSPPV
experimental-readout: IC50 (µM)

- COc1cc(OC)cc(C(CCN)c2ccc3ncc(-c4cnn(C)c4)nc3c2)c1.Cl (centres unmarked): 3.16
- COc1cc(OC)cc(C(CC#N)c2ccc3ncc(-c4cnn(C)c4)nc3c2)c1 (centres unmarked): 6.31
- COc1cc(OC)cc(C(CCNC(C)C)c2ccc3ncc(-c4cnn(C)c4)nc3c2)c1.Cl (centres unmarked): 1

[P] COc1cc(OC)cc(C(CCO)c2ccc3ncc(-c4cnn(C)c4)nc3c2)c1 (centres unmarked)
[Q] COc1cc(OC)cc(C2(c3ccc4ncc(-c5cnn(C)c5)nc4c3)CC2)c1
In: When P and Q are compared, which has the higher number for IC50? Indicate your choice by writing its label.
Out: P

* * *

Counter-ions that a name gives are not always drawn.
experimental-readout: melting point (°C)

Solved cases (3 shown):
* COc1cc(OC)cc(/C(=C/C#N)c2ccc3ncc(-c4cnn(C)c4)nc3c2)c1 | 223
* COc1cc(OC)cc(C(CCNC(C)C)c2ccc3ncc(-c4cnn(C)c4)nc3c2)c1 (single isomer, unassigned) (as salt: oxalic acid salt) [Compound 32a] | 172
* COc1cc(OC)cc(C(CC(=O)NC(C)C)c2ccc3ncc(-c4cnn(C)c4)nc3c2)c1 (centres unmarked) | 186

[1] COc1cc(OC)cc(C(CCCN)c2ccc3ncc(-c4cnn(C)c4)nc3c2)c1.Cl (centres unmarked)
[2] COc1cc(OC)cc(C(CCN)c2ccc3ncc(-c4cnn(C)c4)nc3c2)c1.Cl (centres unmarked)
In: When 1 and 2 are compared, which has the higher number for melting point? Indicate your choice by writing its label.
Out: 2

* * *

biological target: FGFR3 (h) (Homo sapiens); assay: FGFR3 (enzymatic assay), TR-FRET; type: biochemical; details: 25 μM ATP; read-out: FGFR3 pIC50 (converted)
experimental-readout: IC50 (nM)

• COc1cc(OC)cc(/C(=C/C#N)c2ccc3ncc(-c4cnn(C)c4)nc3c2)c1 = 2190
• COc1cc(OC)cc(C(O)(CNCCNC(C)C)c2ccc3ncc(-c4cnn(C)c4)nc3c2)c1 (single isomer, unassigned) [Compound 6] = 676

[A] COc1cc(OC)cc(C(O)(CNCCNC(C)C)c2ccc3ncc(-c4cnn(C)c4)nc3c2)c1 (single isomer, unassigned) [Compound 5]
[B] COc1cc(OC)cc(/C(=C/CNC(C)C)c2ccc3ncc(-c4cnn(C)c4)nc3c2)c1
In: Compare reported IC50 values for A and B . Which is lower? Indicate your choice by writing its label.
Out: B
(B: 123 nM, A: 575 nM)

* * *

biological target: Ba/F3-FGFR3-transfected cells (Homo sapiens, UniProt P22607); construct: BAF3-FGFR3 (MIN IL3) pIC50; other: minus IL3; test: Ba/F3-FGFR3 (minus IL3 or plus IL3) cellular proliferation assay; type: cell-based; settings: minus IL3
Sequence (P22607 whole entry, change not shown): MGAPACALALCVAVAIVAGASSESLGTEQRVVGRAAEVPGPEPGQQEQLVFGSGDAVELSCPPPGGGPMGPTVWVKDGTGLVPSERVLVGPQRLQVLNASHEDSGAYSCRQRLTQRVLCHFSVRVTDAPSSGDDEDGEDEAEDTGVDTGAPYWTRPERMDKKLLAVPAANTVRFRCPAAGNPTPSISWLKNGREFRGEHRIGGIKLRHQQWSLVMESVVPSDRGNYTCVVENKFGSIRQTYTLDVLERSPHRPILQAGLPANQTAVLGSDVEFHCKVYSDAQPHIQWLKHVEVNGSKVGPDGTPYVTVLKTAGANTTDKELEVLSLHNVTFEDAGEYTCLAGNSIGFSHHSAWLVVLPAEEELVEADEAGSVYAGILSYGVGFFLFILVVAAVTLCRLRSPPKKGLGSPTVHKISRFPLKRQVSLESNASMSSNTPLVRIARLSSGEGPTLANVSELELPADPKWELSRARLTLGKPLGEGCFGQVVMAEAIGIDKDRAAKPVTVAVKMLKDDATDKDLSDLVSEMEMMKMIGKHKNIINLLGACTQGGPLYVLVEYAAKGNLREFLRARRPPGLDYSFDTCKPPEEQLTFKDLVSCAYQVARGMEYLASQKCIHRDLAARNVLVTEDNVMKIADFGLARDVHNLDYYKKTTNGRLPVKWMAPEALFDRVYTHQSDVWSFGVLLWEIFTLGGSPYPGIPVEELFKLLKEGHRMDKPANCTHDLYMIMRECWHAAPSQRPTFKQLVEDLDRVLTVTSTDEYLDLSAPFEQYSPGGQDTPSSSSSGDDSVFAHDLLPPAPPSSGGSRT
experimental-readout: BAF3-FGFR3 (MIN IL3) pIC50

- Cn1cc(-c2cnc3ccc(C(O)c4ccccc4)cc3n2)cn1 (stereo not shown): <5
- COc1cc(OC)cc(/C(=C/C#N)c2ccc3ncc(-c4cnn(C)c4)nc3c2)c1: 5.29
- CN(C)CCC(c1ccccc1)c1ccc2ncc(-c3cnn(C)c3)nc2c1 (stereo not shown): <5

Here is the next item to consider.
In: Recorded BAF3-FGFR3 (MIN IL3) pIC50 for COc1cc(OC)cc(C(CC(=O)NC(C)C)c2ccc3ncc(-c4cnn(C)c4)nc3c2)c1 (stereo not shown) , please?
Out: <5

* * *

target: Ba/F3-FGFR3-transfected cells (Homo sapiens); construct: BAF3-FGFR3 (MIN IL3) pIC50; other: minus IL3; test: Ba/F3-FGFR3 (minus IL3 or plus IL3) cellular proliferation assay; type: cell-based; settings: minus IL3
experimental-readout: BAF3-FGFR3 (MIN IL3) pIC50

• COc1cc(OC)cc(/C(=C\CNC(C)C)c2ccc3ncc(-c4cnn(C)c4)nc3c2)c1 = 6.72
• COc1cc(OC)cc(/C(=C\C#N)c2ccc3ncc(-c4cnn(C)c4)nc3c2)c1 = 5.76
• COc1cc(OC)cc(C(=O)c2ccc3ncc(-c4cnn(C)c4)nc3c2)c1 = 5.17
• COc1cc(OC)cc(/C(=C/CNC(C)C)c2ccc3ncc(-c4cnn(C)c4)nc3c2)c1 = 6.82

* * *

molecular target: Ba/F3-FGFR1-transfected cells (Homo sapiens, UniProt P11362); construct: BAF3-FGFR1 (MIN IL3) pIC50; other: minus IL3; assay: Ba/F3-FGFR1 (minus IL3 or plus IL3) cellular proliferation assay; type: cell-based; details: minus IL3
Sequence (P11362 whole entry, change not shown): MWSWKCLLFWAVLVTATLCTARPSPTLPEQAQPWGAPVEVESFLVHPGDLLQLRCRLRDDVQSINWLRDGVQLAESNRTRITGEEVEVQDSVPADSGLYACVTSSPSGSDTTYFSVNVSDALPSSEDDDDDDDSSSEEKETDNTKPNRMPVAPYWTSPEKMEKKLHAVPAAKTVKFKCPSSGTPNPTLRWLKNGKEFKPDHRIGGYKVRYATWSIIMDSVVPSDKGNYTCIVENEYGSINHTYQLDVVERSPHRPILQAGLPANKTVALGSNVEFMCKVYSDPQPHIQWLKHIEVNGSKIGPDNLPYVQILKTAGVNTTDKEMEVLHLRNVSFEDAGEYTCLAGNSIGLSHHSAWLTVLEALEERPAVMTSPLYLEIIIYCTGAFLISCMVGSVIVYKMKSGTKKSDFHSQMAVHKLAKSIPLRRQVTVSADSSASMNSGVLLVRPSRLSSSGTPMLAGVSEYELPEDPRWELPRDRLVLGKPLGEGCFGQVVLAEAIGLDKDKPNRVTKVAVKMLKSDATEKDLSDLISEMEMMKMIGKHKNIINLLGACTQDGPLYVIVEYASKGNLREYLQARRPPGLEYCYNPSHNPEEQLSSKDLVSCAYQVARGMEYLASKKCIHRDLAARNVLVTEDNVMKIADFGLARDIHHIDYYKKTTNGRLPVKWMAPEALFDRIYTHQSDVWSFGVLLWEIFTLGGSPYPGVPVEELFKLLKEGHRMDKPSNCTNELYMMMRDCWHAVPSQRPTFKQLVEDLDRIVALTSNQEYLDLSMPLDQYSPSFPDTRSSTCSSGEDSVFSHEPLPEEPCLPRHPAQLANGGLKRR
experimental-readout: BAF3-FGFR1 (MIN IL3) pIC50

- COc1cc(OC)cc(C(CC#N)c2ccc3ncc(-c4cnn(C)c4)nc3c2)c1 (stereo not shown): 5.6
- COc1cc(OC)cc(C(CCNC(C)C)c2ccc3ncc(-c4cnn(C)c4)nc3c2)c1 (single isomer, unassigned) [Compound 32a]: 5.14
- COc1cc(OC)cc(C(CCN)c2ccc3ncc(-c4cnn(C)c4)nc3c2)c1.Cl (stereo not shown): 5.86
- COc1cc(OC)cc(C(CCN2CCCC2=O)c2ccc3ncc(-c4cnn(C)c4)nc3c2)c1.Cl (stereo not shown): 5.52
- COc1cc(OC)cc(C(CCNCC(F)(F)F)c2ccc3ncc(-c4cnn(C)c4)nc3c2)c1.Cl (stereo not shown): 5.11

* * *

biological target: Ba/F3-FGFR3-transfected cells (Homo sapiens, UniProt P22607); construct: BAF3-FGFR3 (MIN IL3) pIC50; other: minus IL3; test: Ba/F3-FGFR3 (minus IL3 or plus IL3) cellular proliferation assay; format: cell-based; conditions: minus IL3
experimental-readout: BAF3-FGFR3 (MIN IL3) pIC50

* COc1cc(OC)cc(C(CCN(C)C)c2ccc3ncc(-c4cnn(C)c4)nc3c2)c1.Cl (stereo not shown) [Compound 21] | 6.32
* COc1cc(OC)cc(C(CC#N)c2ccc3ncc(-c4cnn(C)c4)nc3c2)c1 (stereo not shown) [Compound 18] | 5.48
* COc1cc(OC)cc(C(CCN2CCCC2=O)c2ccc3ncc(-c4cnn(C)c4)nc3c2)c1.Cl (stereo not shown) [Compound 7] | 5.8
* COc1cc(OC)cc(C2(c3ccc4ncc(-c5cnn(C)c5)nc4c3)CC2)c1 [Compound 30] | 5.63

* * *

molecular target: FGFR3 (h) (Homo sapiens, UniProt P22607); assay: FGFR3 (enzymatic assay), TR-FRET; type: biochemical; details: 25 μM ATP; read-out: FGFR3 pIC50 (converted)
Sequence (P22607 23-806): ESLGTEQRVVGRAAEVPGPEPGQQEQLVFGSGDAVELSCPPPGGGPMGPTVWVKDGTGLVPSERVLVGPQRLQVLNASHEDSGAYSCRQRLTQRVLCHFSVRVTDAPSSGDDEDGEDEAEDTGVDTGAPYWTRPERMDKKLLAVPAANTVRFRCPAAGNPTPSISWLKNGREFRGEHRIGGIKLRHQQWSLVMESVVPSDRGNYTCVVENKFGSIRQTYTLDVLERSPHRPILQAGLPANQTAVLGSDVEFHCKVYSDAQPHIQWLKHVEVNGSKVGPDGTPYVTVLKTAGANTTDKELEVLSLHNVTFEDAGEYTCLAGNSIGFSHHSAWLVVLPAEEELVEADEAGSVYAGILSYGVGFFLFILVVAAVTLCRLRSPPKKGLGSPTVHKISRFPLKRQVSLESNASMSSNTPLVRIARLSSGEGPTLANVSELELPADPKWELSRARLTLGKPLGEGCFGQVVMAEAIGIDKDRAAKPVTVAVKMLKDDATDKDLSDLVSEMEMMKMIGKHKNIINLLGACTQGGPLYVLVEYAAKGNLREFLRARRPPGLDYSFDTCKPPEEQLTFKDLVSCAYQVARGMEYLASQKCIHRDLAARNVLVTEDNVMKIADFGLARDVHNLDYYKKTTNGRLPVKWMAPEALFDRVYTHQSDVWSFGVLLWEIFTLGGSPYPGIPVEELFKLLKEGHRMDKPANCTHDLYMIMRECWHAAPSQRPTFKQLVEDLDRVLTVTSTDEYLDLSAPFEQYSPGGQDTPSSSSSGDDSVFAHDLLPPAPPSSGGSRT
experimental-readout: IC50 (nM)

[A] COc1cc(OC)cc(C(CCO)c2ccc3ncc(-c4cnn(C)c4)nc3c2)c1 (stereo not drawn) [Compound 22]
[B] COc1cc(OC)cc(/C(=C/CN(C)C)c2ccc3ncc(-c4cnn(C)c4)nc3c2)c1 [Compound 34]
[C] Cn1cc(-c2cnc3ccc(C(O)c4ccccc4)cc3n2)cn1 (stereo not drawn) [Compound 28]
In: Kindly sort the 3 molecules above from the smallest to the largest IC50. Form entry: ranked labels (order as requested).
Out: A, B, C
(A: 51.3 nM, B: 107 nM, C: 3720 nM)

The reported measurements were obtained from patent US9290478B2.
